Provenance of the data: paper PMC9636434

- methodNotes: Pharmacokinetic study, 3 mg/kg IV, 10 mg/kg PO and 10 mg/kg PO QD*3, plasma, liver and bone
- Type: in vivo, mouse
- testConditions: female, C57BL/6J, mouse, bone (long bones), iv, 3 mg/kg, bone, IV, 3 h, individual animals; read-out: Bone 6641 IV concentration
measurementType: concentration at 3 h (ng/g)
Enter your answer as a number in ng/g; do not include the unit.

For this molecule ( O=C1Nc2ccc(-c3cc(C(F)(F)F)cc(C(F)(F)F)c3)cc2C(=O)N2CCN(C(=O)COc3ccc(OC(F)(F)F)cc3I)C[C@@H]12 ), measured concentration at 3 h is 337
